Test: Urinary excretion in rat after 4-8 hours of oral administration at 50 mg/kg
Format: ADME, organism-based
Parameters: dose 50 mg/kg, route oral
Details: urine
TEST_READOUT: dose excreted (%)

[[record]]
compound = "O=C(O)c1cn2c3c(c(N4CCNCC4)c(F)cc3c1=O)SCC2"
result_unit = "%"
assay_result = 5.59

[[record]]
compound = "CN1CCN(c2c(F)cc3c(=O)c(C(=O)O)cn4c3c2SCC4)CC1"
result_unit = "%"
assay_result = 10.5

[[record]]
compound = "CC1Cn2cc(C(=O)O)c(=O)c3cc(F)c(N4CCN(C)CC4)c(c32)S1 (centres undefined)"
result_unit = "%"
assay_result = 2.59

[[record]]
compound = "CC1Cn2cc(C(=O)O)c(=O)c3cc(F)c(N4CCNCC4)c(c32)S1 (centres undefined)"
result_unit = "%"
assay_result = 1.92


###

Assay: Urinary excretion in rat after 0-4 hours of oral administration at 50 mg/kg
Type: ADME, organism-based
Design: dose 50 mg/kg, route oral
Details: urine
TEST_READOUT: dose excreted (%)

[[record]]
compound = "CC1Cn2cc(C(=O)O)c(=O)c3cc(F)c(N4CCN(C)CC4)c(c32)S1 (centres undefined)"
test_readout = "dose excreted"
assay_result = 1.5

[[record]]
compound = "O=C(O)c1cn2c3c(c(N4CCNCC4)c(F)cc3c1=O)SCC2"
test_readout = "dose excreted"
assay_result = 2.73

[[record]]
compound = "CN1CCN(c2c(F)cc3c(=O)c(C(=O)O)cn4c3c2SCC4)CC1"
test_readout = "dose excreted"
assay_result = 2.18

[[record]]
compound = "CC1Cn2cc(C(=O)O)c(=O)c3cc(F)c(N4CCNCC4)c(c32)S1 (centres undefined)"
test_readout = "dose excreted"
assay_result = 0.37


###

Each entry below carries its reported concentration at 4 h.
Experiment: Plasma concentration level in rat after 4 hours of oral administration at 50 mg/kg
Assay type: ADME, organism-based
Set-up: dose 50 mg/kg, route oral
TEST_READOUT: concentration at 4 h (ng/mL)

[[record]]
molecule = "CN1CCN(c2c(F)cc3c(=O)c(C(=O)O)cn4c3c2SCC4)CC1"
assay_result = 4430

[[record]]
molecule = "CC1Cn2cc(C(=O)O)c(=O)c3cc(F)c(N4CCN(C)CC4)c(c32)S1 (configuration not stated)"
assay_result = 7610


###

Tested on: Escherichia coli
Assay: Minimal inhibitory concentration against Escherichia coli ISF 432 strain
Assay type: functional
TEST_READOUT: MIC (µg/mL)

[[record]]
compound = "CC1Cn2cc(C(=O)O)c(=O)c3cc(F)c(N4CCN(Cc5cccc(F)c5)CC4)c(c32)S1 (stereo unspecified)"
test_readout = "MIC"
assay_result = 16

[[record]]
compound = "CC1Cn2cc(C(=O)O)c(=O)c3cc(F)c(N4CCN(S(=O)(=O)c5ccc(F)cc5)CC4)c(c32)S1 (stereo unspecified)"
test_readout = "MIC"
assay_result = 2

[[record]]
compound = "CC1Cn2cc(C(=O)O)c(=O)c3cc(F)c(N4CCN(Cc5ccc(F)cc5F)CC4)c(c32)S1 (stereo unspecified)"
test_readout = "MIC"
assay_result = 8

[[record]]
compound = "CC1Cn2cc(C(=O)O)c(=O)c3cc(F)c(Cl)c(c32)S1 (stereo unspecified)"
test_readout = "MIC"
assay_result = 0.12

[[record]]
compound = "CC1Cn2cc(C(=O)O)c(=O)c3cc(F)c(-n4ccnc4)c(c32)S1 (stereo unspecified)"
test_readout = "MIC"
assay_result = 0.12

[[record]]
compound = "CC1Cn2cc(C(=O)O)c(=O)c3cc(F)c(N4CCN(c5ccccn5)CC4)c(c32)S1 (stereo unspecified)"
test_readout = "MIC"
assay_result = 1

[[record]]
compound = "CN1CCN(c2c(F)cc3c(=O)c(C(=O)O)cn4c3c2SCC4)CC1"
test_readout = "MIC"
assay_result = 0.25

[[record]]
compound = "CC1CN(c2c(F)cc3c(=O)c(C(=O)O)cn4c3c2SC(C)C4)CC(C)N1 (stereo unspecified)"
test_readout = "MIC"
assay_result = 0.25

[[record]]
compound = "O=C(O)c1cn2c3c(c(N4CCNCC4)c(F)cc3c1=O)SC(c1ccc(F)cc1)C2 (stereo unspecified)"
test_readout = "MIC"
assay_result = 2

[[record]]
compound = "CN1CCN(c2c(F)cc3c(=O)c(C(=O)O)cn4c3c2SC(c2ccc(F)cc2)C4)CC1 (stereo unspecified)"
test_readout = "MIC"
assay_result = 8

[[record]]
compound = "CC1Cn2cc(C(=O)O)c(=O)c3cc(F)c(N4CCN(Cc5ccccc5C(F)(F)F)CC4)c(c32)S1 (stereo unspecified)"
test_readout = "MIC"
assay_result = 8

[[record]]
compound = "CC1Cn2cc(C(=O)O)c(=O)c3cc(F)c(N4CCN(C=O)CC4)c(c32)S1 (stereo unspecified)"
test_readout = "MIC"
assay_result = 0.5

[[record]]
compound = "CC1Cn2cc(C(=O)O)c(=O)c3cc(F)c(N4CCNCC4)c(c32)S1 (stereo unspecified)"
test_readout = "MIC"
assay_result = 0.25

[[record]]
compound = "CC1Cn2cc(C(=O)O)c(=O)c3cc(F)c(N4CCN(c5ccc(F)cc5)CC4)c(c32)S1 (stereo unspecified)"
test_readout = "MIC"
assay_result = 8

[[record]]
compound = "CC1Cn2cc(C(=O)O)c(=O)c3cc(F)c(N4CCN(C)CC4)c(c32)S1 (stereo unspecified)"
test_readout = "MIC"
assay_result = 0.25

[[record]]
compound = "CCNCC1CCN(c2c(F)cc3c(=O)c(C(=O)O)cn4c3c2SC(C)C4)C1 (stereo unspecified)"
test_readout = "MIC"
assay_result = 0.25

[[record]]
compound = "CC1Cn2cc(C(=O)O)c(=O)c3cc(F)c(N4CCCNCC4)c(c32)S1 (stereo unspecified)"
test_readout = "MIC"
assay_result = 4

[[record]]
compound = "O=C(O)c1cn2c3c(c(Cl)c(F)cc3c1=O)SC(c1cccc(F)c1)C2 (stereo unspecified)"
test_readout = "MIC"
assay_result = 2

[[record]]
compound = "O=C(O)c1cn2c3c(c(Cl)c(F)cc3c1=O)SC(c1ccccc1F)C2 (stereo unspecified)"
test_readout = "MIC"
assay_result = 0.5

[[record]]
compound = "O=C(O)c1cn2c3c(c(Cl)c(F)cc3c1=O)SC(c1ccc(F)cc1)C2 (stereo unspecified)"
test_readout = "MIC"
assay_result = 0.25

[[record]]
compound = "CC1Cn2cc(C(=O)O)c(=O)c3cc(F)c(N4CCCC4)c(c32)S1 (stereo unspecified)"
test_readout = "MIC"
assay_result = 0.25

